- System: HL-60(TB) leukemia
- experimentalDetails: NCI tumour cell line growth inhibition, 48 h
Here the recorded TGI is given for each entry.

Take a look at these entries with their results.
molecule: CCN(CC)CCSc1nc2c([N+](=O)[O-])cccc2[nH]1
TGI: > 100 µM
//
molecule: O=C(O)Cc1ccccc1
TGI: > 1000 µM
//
molecule: Cc1cc(N(CCC#N)CCC#N)ccc1N=Nc1ccc([N+](=O)[O-])cc1
TGI: > 100 µM
//
molecule: CCN(CC)c1ccc(/C=C/C2=[N+](C)c3ccccc3C2(C)C)cc1
TGI: > 100 µM
//
molecule: N=C1SCCS1
TGI: > 100 µM
//
molecule: Cc1ccc2c(c1)C(=O)c1ccc(C)nc1C2=O
TGI: > 100 µM
//
molecule: CCCCCNC(=O)C1C(=O)N(CCCCC)C(=O)/C1=N\N (stereo not given)
TGI: > 100 µM
//
molecule: CC(=O)NC1C(OCc2ccccc2)OC(CO)C(O)C1OCC(=O)NC(C)C(=O)NC(CCC(=O)Nc1ccc2c(c1)CN1C(=O)c3ccccc3C1=N2)C(N)=O (stereo not given)
TGI: > 100 µM
//
molecule: O=C1c2ccccc2-c2ccc(N(Cc3ccc(Br)cc3)Cc3ccc(Br)cc3)cc21
TGI: 46.8 µM
//
molecule: COc1ccc(C(NCCNC(c2ccc(OC)c(OC)c2)c2cc3c(cc2O)OCO3)c2cc3c(cc2O)OCO3)cc1OC (stereo not given)
TGI: 4.69 µM

Proceed to the following item.
Form: Entry = O=C(NCCS(=O)(=O)N1C(=O)C2CCCN2C(=O)[C@@H]1Cc1ccccc1)OCc1ccccc1 (stereo not given in full) | System = HL-60(TB) leukemia | TGI = ____
48.9 µM

---

- System: SF-268 CNS
- experimentalDetails: NCI tumour cell line growth inhibition, 48 h
resultType: GI50

Take a look at these entries with their results.
compound: O=C1/C(=C\c2ccccc2)CN(C(=O)c2ccccc2F)C/C1=C\c1ccccc1
resultType: GI50
recordedResult: 2.8 µM
//
compound: CCOC(=O)/C(=C/c1c(-c2ccccc2)[nH]c2ccccc12)C(=O)c1ccc(Cl)cc1
resultType: GI50
recordedResult: 6.06 µM
//
compound: NCCCNCCCNc1nc2ccccc2c2[nH]c3ccccc3c12
resultType: GI50
recordedResult: 0.0264 µM

Recorded GI50 of C[C@@H](Oc1cc(-n2cnc3ccc(OCC4CCN(C)CC4)cc32)sc1C(N)=O)c1ccccc1C(F)(F)F , please.
0.14 µM

Then this compound: COc1ccc(C2=NN(c3ccc(S(N)(=O)=O)cc3)C(c3ccc(Cl)cc3)C2)c(O)c1 (stereo not given)
5.7 µM

---

- System: KM12 colon
- experimentalDetails: NCI tumour cell line growth inhibition, 48 h
resultType: TGI

compound: CNS(=O)(=O)NN(C)S(=O)(=O)c1ccc(C)cc1
system: KM12 colon
recordedResult: > 100 µM

compound: N=C(N)c1ccc(-c2ccc(-c3ccccc3)o2)cc1
system: KM12 colon
recordedResult: 3.58 µM

compound: N#Cc1c(-c2ccccc2)cc(Nc2ccc(F)cc2)n2c1nc1ccccc12
system: KM12 colon
recordedResult: > 100 µM

compound: c1ccc(CNc2nc(Nc3ccc(-c4nc5ccccc5[nH]4)cc3)c3cn[nH]c3n2)cc1
system: KM12 colon
recordedResult: 4.87 µM

compound: O=C1NCC2=C1CCC1c3ccccc3CCN21 (stereo not drawn)
system: KM12 colon
recordedResult: > 100 µM

Recorded TGI of COc1ccc(C(c2ccccc2)N2C(=O)CCC2C(=O)O)cc1OC (stereo not drawn) , please.
> 100 µM

Then this compound: COc1ccccc1NS(=O)(=O)c1cc(C(C)(C)C)ccc1OCCOc1ccc(C(C)(C)C)cc1S(=O)(=O)Nc1ccccc1OC
> 100 µM

Then this compound: COc1cccc(C2C3=C(COC3=O)N(CCO)c3cc4c(cc32)CCC4)c1 (stereo not drawn)
0.443 µM
